Data origin, for the record: paper PMC7351026

- experimental.protocol: PFAS levels in urine samples of airport employees, specific-gravity adjusted (LC/MS/MS)
- Format: in vivo, human
- assay.conditions: 5th sampling (January 2019), count 12
# maps each entry to its Specific gravity adjusted urinary level, Min
Just the number in ng/mL, nothing appended.

smiles: O=S(=O)(O)C(F)(F)C(F)(F)C(F)(F)C(F)(F)C(F)(F)C(F)(F)F
value: 0.06
--
smiles: O=S(=O)(O)C(F)(F)C(F)(F)C(F)(F)C(F)(F)C(F)(F)F
value: 0.05

Switching to the query record.
Look up Specific gravity adjusted urinary level, Min for this molecule: O=C(O)C(F)(F)C(F)(F)C(F)(F)C(F)(F)C(F)(F)C(F)(F)C(F)(F)F
0.02

* * *

- experimental.protocol: Individual serum elimination rate and half-life (linear regression per employee);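 on HL (half-life): half-life in years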
- assay.conditions: individual estimate, subject 5, 5 samples
experimental.readout: HL (half-life) (year)
# number only, unit year dropped from output

See these solved cases before continuing.
molecule: O=S(=O)(O)C(F)(F)C(F)(F)C(F)(F)C(F)(F)C(F)(F)F
HL (half-life) [year]: 1.7
--
molecule: O=S(=O)(O)C(F)(F)C(F)(F)C(F)(F)C(F)(F)C(F)(F)C(F)(F)C(F)(F)C(F)(F)F
HL (half-life) [year]: 1.2
--
molecule: O=S(=O)(O)C(F)(F)C(F)(F)C(F)(F)C(F)(F)F
HL (half-life) [year]: 0.2

Name the recorded HL (half-life) for O=S(=O)(O)C(F)(C(F)(F)F)C(F)(F)C(F)(F)C(F)(F)C(F)(F)C(F)(F)C(F)(F)F (stereo not shown) [1m-PFOS, perfluoro-1-methylheptanesulfonate] .
5.9

* * *

- experimental.protocol: PFAS levels in urine samples of airport employees, specific-gravity adjusted (LC/MS/MS)
- Format: in vivo, human
- assay.conditions: 3rd sampling (November, 2018), count 16
Listed compounds paired with reported Specific gravity adjusted urinary level, Max
Report only the number, with the unit ng/mL understood.

compound: O=S(=O)(O)C(F)(F)C(F)(F)C(F)(F)C(F)(F)C(F)(F)F [PFPeS, perfluoropentane sulfonic acid]
value: 0.12
//
compound: O=S(=O)(O)C(F)(F)C(F)(F)C(F)(F)C(F)(F)C(F)(F)C(F)(F)C(F)(F)C(F)(F)F [L-PFOS, linear perfluorooctane sulfonic acid]
value: 0.03

Consider the compound O=C(O)C(F)(F)C(F)(F)C(F)(F)C(F)(F)C(F)(F)C(F)(F)F [PFHpA, perfluoroheptanoic acid] and give its measured Specific gravity adjusted urinary level, Max.
0.08

Please give the measured Specific gravity adjusted urinary level, Max for this compound: O=C(O)C(F)(F)C(F)(F)C(F)(F)C(F)(F)C(F)(F)C(F)(F)C(F)(F)F [PFOA, perfluorooctanoic acid]
0.07

Specific gravity adjusted urinary level, Max for O=S(=O)(O)C(F)(F)C(F)(F)C(F)(F)C(F)(F)C(F)(F)C(F)(F)F [PFHxS, perfluorohexane sulfonic acid] ?
0.26

* * *

- experimental.protocol: Individual serum elimination rate and half-life (linear regression per employee);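 on HL (half-life): half-life in years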
- assay.conditions: individual estimate, subject 6, 4 samples
experimental.readout: HL (half-life) (year)
// note: answer is a bare numeric in year

These solved cases illustrate the format of a correct answer.
smiles: O=S(=O)(O)C(F)(F)C(F)(F)C(F)(F)C(F)(F)F
unit.of.measurement: year
value: 0.2
--
smiles: O=S(=O)(O)C(F)(F)C(F)(F)C(F)(F)C(F)(F)C(F)(F)C(F)(F)C(F)(F)F
unit.of.measurement: year
value: 6.1
--
smiles: O=S(=O)(O)C(F)(F)C(F)(F)C(F)(F)C(F)(F)C(F)(F)C(F)(F)C(F)(F)C(F)(F)F
unit.of.measurement: year
value: 17

Lab note: next molecule to report on.
For the molecule O=S(=O)(O)C(F)(F)C(F)(F)C(F)(F)C(F)(F)C(F)(F)F , what HL (half-life) is on record?
0.7

* * *

- experimental.protocol: PFAS levels in urine samples of airport employees, specific-gravity adjusted (LC/MS/MS)
- Type: in vivo, human
- assay.conditions: 2nd sampling (October 2018), count 17
experimental.readout: Specific gravity adjusted urinary level, Median (ng/mL)
# unit: ng/mL | format: bare number

smiles: O=C(O)C(F)(F)C(F)(F)C(F)(F)C(F)(F)C(F)(F)C(F)(F)C(F)(F)F
unit.of.measurement: ng/mL
value: 0.03
//
smiles: O=S(=O)(O)C(F)(F)C(F)(F)C(F)(F)C(F)(F)C(F)(F)C(F)(F)F
unit.of.measurement: ng/mL
value: 0.09
//
smiles: O=S(=O)(O)C(F)(F)C(F)(F)C(F)(F)C(F)(F)C(F)(F)F
unit.of.measurement: ng/mL
value: 0.07

# next compound below
# input compound: O=C(O)C(F)(F)C(F)(F)C(F)(F)C(F)(F)C(F)(F)C(F)(F)F ; wanted: its Specific gravity adjusted urinary level, Median
0.03

* * *

- experimental.protocol: PFAS levels in serum samples of airport employees (LC/MS/MS)
- assay.conditions: 5th sampling (January 2019), count 16
The label met is reserved for Serum PFAS level, 75 percentile strictly under 1; not met covers values equal to or above it.

molecule: O=C(O)C(F)(F)C(F)(F)C(F)(F)C(F)(F)C(F)(F)F
label: met

Item O=C(O)C(F)(F)C(F)(F)C(F)(F)C(F)(F)C(F)(F)C(F)(F)F : Serum PFAS level, 75 percentile beneath 1, strictly?
met

Strictly below 1 in Serum PFAS level, 75 percentile? O=S(=O)(O)C(F)(F)C(F)(F)C(F)(F)C(F)(F)C(F)(F)F
not met

Could you please tell me whether Serum PFAS level, 75 percentile recorded for O=S(=O)(O)C(F)(F)C(F)(F)C(F)(F)C(F)(F)C(F)(F)C(F)(F)F is less than 1?
not met

I'd appreciate it if you could check whether O=S(=O)(O)C(F)(F)C(F)(F)C(F)(F)C(F)(F)C(F)(F)C(F)(F)C(F)(F)C(F)(F)F has Serum PFAS level, 75 percentile smaller than 1.
not met

Could you please tell me whether Serum PFAS level, 75 percentile recorded for O=S(=O)(O)C(F)(F)C(F)(F)C(F)(F)C(F)(F)C(F)(F)C(F)(F)C(F)(F)F is less than 1?
not met

Below 1 on Serum PFAS level, 75 percentile? Entry O=S(=O)(O)C(F)(F)C(F)(F)C(F)(F)C(F)(F)F
met

Does this molecule meet the criterion Serum PFAS level, 75 percentile < 1? O=S(=O)(O)C(F)(C(F)(F)F)C(F)(F)C(F)(F)C(F)(F)C(F)(F)C(F)(F)C(F)(F)F (stereo not drawn) [1m-PFOS, perfluoro-1-methylheptanesulfonate]
not met

For this molecule, is Serum PFAS level, 75 percentile lower than 1? O=C(O)C(F)(F)C(F)(F)C(F)(F)C(F)(F)C(F)(F)C(F)(F)C(F)(F)F
not met

* * *

- experimental.protocol: Individual serum elimination rate and half-life (linear regression per employee);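 on HL (half-life): half-life in years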
- assay.conditions: individual estimate, subject 3, 5 samples
experimental.readout: HL (half-life) (year)
Give just the numeric value; year need not be written.

Worked cases, HL (half-life) given:
smiles: O=S(=O)(O)C(F)(F)C(F)(F)C(F)(F)C(F)(F)C(F)(F)F
HL (half-life), year: 0.9

smiles: O=S(=O)(O)C(F)(F)C(F)(F)C(F)(F)C(F)(F)C(F)(F)C(F)(F)C(F)(F)F
HL (half-life), year: 3.0

Moving on to the next molecule.
Name the reported HL (half-life) value associated with the molecule O=C(O)C(F)(F)C(F)(F)C(F)(F)C(F)(F)C(F)(F)F
0.4

* * *

compounds and their reported Elimination rate
- experimental.protocol: Individual serum elimination rate and half-life (linear regression per employee)
- assay.conditions: individual estimate, subject 17, 5 samples
# output: bare number, implied unit yearly

Please review the following examples before continuing.
compound: O=S(=O)(O)C(F)(F)C(F)(F)C(F)(F)C(F)(F)C(F)(F)F
unit.of.measurement: yearly
Elimination rate: 2.4

compound: O=S(=O)(O)C(F)(F)C(F)(F)C(F)(F)C(F)(F)F
unit.of.measurement: yearly
Elimination rate: 10.4

Item under review: O=S(=O)(O)C(F)(C(F)(F)F)C(F)(F)C(F)(F)C(F)(F)C(F)(F)C(F)(F)C(F)(F)F (stereo not drawn) [1m-PFOS, perfluoro-1-methylheptanesulfonate] . Reported Elimination rate?
2.2

* * *

Recorded half-life for the following compounds
- experimental.protocol: Individual serum elimination rate and half-life (linear regression per employee);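 on HL (half-life): half-life in years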
- assay.conditions: human, serum, oral, HL (half-life), individual estimate, subject 6, 4 samples
Express your answer in days, writing the number without its unit.

What value of half-life has been recorded for this entry: O=C(O)C(F)(F)C(F)(F)C(F)(F)C(F)(F)C(F)(F)C(F)(F)C(F)(F)F
1060

Returns the measured half-life for the input compound. Input: O=C(O)C(F)(F)C(F)(F)C(F)(F)C(F)(F)C(F)(F)C(F)(F)F
73

* * *

- experimental.protocol: PFAS levels in urine samples of airport employees, specific-gravity adjusted (LC/MS/MS)
- Type: in vivo, human
- assay.conditions: 2nd sampling (October 2018), count 17
Specific gravity adjusted urinary level, 75 percentile overview
# number only, unit ng/mL dropped from output

Examples from the recorded data:
smiles: O=S(=O)(O)C(F)(F)C(F)(F)C(F)(F)C(F)(F)C(F)(F)C(F)(F)F
value: 0.13
//
smiles: O=C(O)C(F)(F)C(F)(F)C(F)(F)C(F)(F)C(F)(F)C(F)(F)F
value: 0.04
//
smiles: O=S(=O)(O)C(F)(F)C(F)(F)C(F)(F)C(F)(F)C(F)(F)C(F)(F)C(F)(F)C(F)(F)F
value: 0.01
//
smiles: O=S(=O)(O)C(F)(F)C(F)(F)C(F)(F)C(F)(F)C(F)(F)F
value: 0.08

I am curious: what Specific gravity adjusted urinary level, 75 percentile value has been reported for O=C(O)C(F)(F)C(F)(F)C(F)(F)C(F)(F)C(F)(F)C(F)(F)C(F)(F)F ?
0.04
